# target-of-assay: COX-1 (cyclooxygenase enzyme-1) (Ovis aries, UniProt P05979)
# Construct: gene PTGS1
# Sequence (P05979 25-600): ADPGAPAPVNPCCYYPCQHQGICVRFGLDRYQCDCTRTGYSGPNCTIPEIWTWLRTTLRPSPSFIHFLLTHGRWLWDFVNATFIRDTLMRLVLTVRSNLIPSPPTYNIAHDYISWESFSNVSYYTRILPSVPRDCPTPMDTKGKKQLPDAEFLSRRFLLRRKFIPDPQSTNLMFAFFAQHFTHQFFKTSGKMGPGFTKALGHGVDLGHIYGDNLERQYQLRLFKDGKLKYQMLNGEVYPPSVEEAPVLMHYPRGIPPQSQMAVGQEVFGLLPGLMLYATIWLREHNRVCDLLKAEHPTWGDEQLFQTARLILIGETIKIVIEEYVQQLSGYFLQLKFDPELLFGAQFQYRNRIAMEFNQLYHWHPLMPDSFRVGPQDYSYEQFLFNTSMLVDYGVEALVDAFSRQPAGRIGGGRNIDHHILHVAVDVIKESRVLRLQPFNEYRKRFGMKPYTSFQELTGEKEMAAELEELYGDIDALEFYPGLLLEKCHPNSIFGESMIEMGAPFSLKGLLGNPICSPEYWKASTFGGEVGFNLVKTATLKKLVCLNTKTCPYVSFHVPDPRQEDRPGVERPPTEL
# run-description: biochemical
# Parameters: In vitro cyclooxygenase (COX-1 and COX-2) enzyme inhibition assay, percent inhibition
# experimental-parameters: read-out: % inhibition
measured-attribute: inhibition at 25 µg/mL (%)

molecule	target-of-assay	unit-name	inhibition at 25 µg/mL
CCCCCCCCCCCCCCCC(=O)O[C@H]1CC[C@@]2(C)C(=CC[C@H]3[C@@H]4CC[C@H]([C@H](C)CCCC(C)C)[C@@]4(C)CC[C@@H]32)C1 [Cholesteryl palmitate^#]	COX-1 (cyclooxygenase enzyme-1) (Ovis aries, UniProt P05979)	%	37.7
Nc1ncnc2c1ncn2[C@@H]1O[C@H](CO)[C@@H](O)[C@H]1O	COX-1 (cyclooxygenase enzyme-1) (Ovis aries, UniProt P05979)	%	16.6
CCC(=O)C(=O)O	COX-1 (cyclooxygenase enzyme-1) (Ovis aries, UniProt P05979)	%	5.24
N[C@@H](Cc1ccccc1)C(=O)O	COX-1 (cyclooxygenase enzyme-1) (Ovis aries, UniProt P05979)	%	15.6
CC/C=C\C/C=C\C/C=C\C/C=C\C/C=C\CCCC(=O)O[C@H]1CC[C@@]2(C)C(=CC[C@H]3[C@@H]4CC[C@H]([C@H](C)CCCC(C)C)[C@@]4(C)CC[C@@H]32)C1 [compound 10, Cholesteryl eicosapentaenoate]	COX-1 (cyclooxygenase enzyme-1) (Ovis aries, UniProt P05979)	%	63.9

I. CCCC(=O)C(=O)O
II. O=c1[nH]cnc2c1ncn2[C@@H]1O[C@H](CO)[C@@H](O)[C@H]1O
Which value of inhibition at 25 µg/mL is numerically greater: that of I or that of II ? I would appreciate it if you answered with the label of your choice. II
(II: 35.8%, I: 4.13%)

###

# target-of-assay: COX-1 (cyclooxygenase enzyme-1) (Ovis aries, UniProt P05979)
# Construct: gene PTGS1
# run-description: biochemical
# Set-up: In vitro cyclooxygenase (COX-1 and COX-2) enzyme inhibition assay, percent inhibition
# experimental-parameters: read-out: % inhibition
# Protocol: (see S1 File for experimental details). To evaluate the health-beneficial activity of the sea lamprey compounds, we included all isolates of sea lamprey extract for the evaluation of in vitro antiinflammatory and antioxidant activities. […] (S1 File). […] Antiinflammatory activities of arginine, tyrosine, tryptophan, asparagine and inosine were assayed at 50 μg/mL concentration.
measured-attribute: inhibition at 25 µg/mL (%)

# annotated cases, reported inhibition at 25 µg/mL shown
molecule	target-of-assay	inhibition at 25 µg/mL / %
NCCCCN [Putrescine]	COX-1 (cyclooxygenase enzyme-1) (Ovis aries, UniProt P05979)	16.9
NC(=O)C[C@H](N)C(=O)O [Asparagine]	COX-1 (cyclooxygenase enzyme-1) (Ovis aries, UniProt P05979)	26.8
O=C(O)[C@@H]1CCCN1 [Proline]	COX-1 (cyclooxygenase enzyme-1) (Ovis aries, UniProt P05979)	21.6
CSCC[C@H](N)C(=O)O [Methionine]	COX-1 (cyclooxygenase enzyme-1) (Ovis aries, UniProt P05979)	15.2

a. CC(O)CC(=O)O (stereo not drawn) [β-Hydroxybutyric acid]
b. CC(C)CCC[C@@H](C)[C@H]1CC[C@H]2[C@@H]3CC=C4C[C@@H](O)CC[C@]4(C)[C@H]3CC[C@]12C [Cholesterol]
c. N[C@@H](CC(=O)O)C(=O)O [Aspartic acid]
Endpoint returns the given molecules ordered by ascending inhibition at 25 µg/mL. Write the labels, ordered according to the request. b, c, a
(b: 2.92%, c: 11.8%, a: 19.7%)

###

# target-of-assay: COX-2 (cyclooxygenase enzyme-2) (Homo sapiens, UniProt P35354)
# Construct: gene PTGS2
# Sequence (P35354 18-604): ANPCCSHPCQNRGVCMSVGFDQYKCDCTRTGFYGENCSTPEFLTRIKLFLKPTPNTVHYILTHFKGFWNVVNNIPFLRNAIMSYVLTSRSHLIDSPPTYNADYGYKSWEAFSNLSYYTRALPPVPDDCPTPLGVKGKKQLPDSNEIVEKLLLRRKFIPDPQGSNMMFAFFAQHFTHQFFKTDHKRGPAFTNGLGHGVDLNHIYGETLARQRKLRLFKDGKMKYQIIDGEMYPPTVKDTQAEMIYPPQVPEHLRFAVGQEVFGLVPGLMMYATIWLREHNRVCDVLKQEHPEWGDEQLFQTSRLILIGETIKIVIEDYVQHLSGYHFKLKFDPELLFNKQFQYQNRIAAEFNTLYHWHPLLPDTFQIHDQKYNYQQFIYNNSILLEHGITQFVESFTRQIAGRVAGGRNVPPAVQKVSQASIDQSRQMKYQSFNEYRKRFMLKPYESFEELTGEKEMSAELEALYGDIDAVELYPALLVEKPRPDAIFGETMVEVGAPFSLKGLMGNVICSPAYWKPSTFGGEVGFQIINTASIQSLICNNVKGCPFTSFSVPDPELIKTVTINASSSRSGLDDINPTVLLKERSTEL
# run-description: biochemical
# Set-up: In vitro cyclooxygenase (COX-1 and COX-2) enzyme inhibition assay, percent inhibition
# experimental-parameters: read-out: % inhibition
measured-attribute: inhibition at 25 µg/mL (%)

A. N[C@@H](Cc1ccccc1)C(=O)O
B. O=c1[nH]cnc2c1ncn2[C@@H]1O[C@H](CO)[C@@H](O)[C@H]1O
Which value of inhibition at 25 µg/mL is numerically greater: that of A or that of B ? I would appreciate it if you answered with the label of your choice. B

a. N[C@@H](Cc1c[nH]c2ccccc12)C(=O)O
b. C[C@@H](O)[C@H](N)C(=O)O
Which value of inhibition at 25 µg/mL is numerically greater: that of a or that of b ? I would appreciate it if you answered with the label of your choice. a

a. NCCCCN
b. N[C@@H](CO)C(=O)O
c. N[C@@H](CC(=O)O)C(=O)O
Order field: inhibition at 25 µg/mL | Direction: descending (largest first) Write the labels, ordered according to the request. a, c, b

a. Nc1[nH]cnc2ncnc1-2
b. CSCC[C@H](N)C(=O)O
c. N[C@@H](Cc1ccc(O)cc1)C(=O)O
d. NCCCNCCCCNCCCN
Endpoint returns the given compounds ordered by ascending inhibition at 25 µg/mL. Write the labels, ordered according to the request. d, b, a, c

###

# target-of-assay: COX-1 (cyclooxygenase enzyme-1) (Ovis aries, UniProt P05979)
# Construct: gene PTGS1
# Sequence (P05979 25-600): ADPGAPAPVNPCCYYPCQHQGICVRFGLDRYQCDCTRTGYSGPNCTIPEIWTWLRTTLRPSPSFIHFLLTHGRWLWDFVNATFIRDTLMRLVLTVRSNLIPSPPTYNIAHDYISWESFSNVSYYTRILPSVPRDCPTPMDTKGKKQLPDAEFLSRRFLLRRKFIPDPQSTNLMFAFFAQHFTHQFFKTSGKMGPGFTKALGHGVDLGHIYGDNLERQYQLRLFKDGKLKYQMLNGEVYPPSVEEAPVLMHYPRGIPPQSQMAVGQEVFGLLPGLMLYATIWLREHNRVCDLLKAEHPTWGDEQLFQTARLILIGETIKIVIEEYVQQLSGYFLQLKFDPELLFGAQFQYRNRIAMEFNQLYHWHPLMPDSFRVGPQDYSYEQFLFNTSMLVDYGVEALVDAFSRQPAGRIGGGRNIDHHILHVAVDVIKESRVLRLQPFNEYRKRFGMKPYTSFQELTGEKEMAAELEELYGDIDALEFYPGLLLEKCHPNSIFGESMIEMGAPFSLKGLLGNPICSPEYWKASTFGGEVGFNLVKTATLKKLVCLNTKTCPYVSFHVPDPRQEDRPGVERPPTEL
# run-description: biochemical
# Parameters: In vitro cyclooxygenase (COX-1 and COX-2) enzyme inhibition assay, percent inhibition
# experimental-parameters: read-out: % inhibition
measured-attribute: inhibition at 25 µg/mL (%)

# annotated cases, reported inhibition at 25 µg/mL shown
compound	target-of-assay	unit-name	inhibition at 25 µg/mL
CC(C)[C@H](N)C(=O)O [Valine]	COX-1 (cyclooxygenase enzyme-1) (Ovis aries, UniProt P05979)	%	21.6
N[C@@H](CCC(=O)O)C(=O)O [Glutamic acid]	COX-1 (cyclooxygenase enzyme-1) (Ovis aries, UniProt P05979)	%	32.2
NCCCNCCCCNCCCN [Spermine]	COX-1 (cyclooxygenase enzyme-1) (Ovis aries, UniProt P05979)	%	17.5
N=C(N)NCCC[C@H](N)C(=O)O [Arginine]	COX-1 (cyclooxygenase enzyme-1) (Ovis aries, UniProt P05979)	%	29.7
O=c1[nH]c(=O)c2nc[nH]c2[nH]1 [Xanthine]	COX-1 (cyclooxygenase enzyme-1) (Ovis aries, UniProt P05979)	%	12.7
CN(CC(=O)O)C(=N)N [Creatine]	COX-1 (cyclooxygenase enzyme-1) (Ovis aries, UniProt P05979)	%	13.3

a. N[C@@H](Cc1ccc(O)cc1)C(=O)O [Tyrosine]
b. Nc1[nH]cnc2ncnc1-2 [Adenine]
Which value of inhibition at 25 µg/mL is numerically greater: that of a or that of b ? I would appreciate it if you answered with the label of your choice. a

1. CC(=O)C(=O)O [Pyruvic acid]
2. CC(C)C[C@H](N)C(=O)O [Leucine]
Quick one: lower inhibition at 25 µg/mL, 1 or 2 ? I would appreciate it if you answered with the label of your choice. 1
(1: 9.48%, 2: 18.2%)
